// data source = patent US20090215778A1

molecular target: HIV Env six-helix bundle (6HB) structure (Human immunodeficiency virus type 1 group M subtype B, UniProt P04579); construct: H9 cells chronically infected with HIV-1 (H9/HIV-1RF); endogenous in cells; host or cells: H9 cells chronically infected with HIV-1 strain RF (Env is made from the virus in the infected cells, not by transfection); assay: Six-helix bundle (6HB) assay; format: cell-based, HIV-1 (strain RF)
Sequence (P04579 32-519): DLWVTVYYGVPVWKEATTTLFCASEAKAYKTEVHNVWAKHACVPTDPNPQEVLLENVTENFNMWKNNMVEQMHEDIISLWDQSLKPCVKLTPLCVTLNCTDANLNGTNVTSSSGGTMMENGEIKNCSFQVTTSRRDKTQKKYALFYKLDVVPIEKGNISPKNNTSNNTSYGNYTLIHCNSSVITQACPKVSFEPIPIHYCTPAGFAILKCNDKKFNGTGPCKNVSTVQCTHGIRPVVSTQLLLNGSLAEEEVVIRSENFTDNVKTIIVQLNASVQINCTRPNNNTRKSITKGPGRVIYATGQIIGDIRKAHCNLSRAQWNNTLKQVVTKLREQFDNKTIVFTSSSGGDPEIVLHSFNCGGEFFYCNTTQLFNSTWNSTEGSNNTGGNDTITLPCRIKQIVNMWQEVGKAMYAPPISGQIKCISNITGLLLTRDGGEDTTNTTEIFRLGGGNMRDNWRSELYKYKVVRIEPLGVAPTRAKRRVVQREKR
Sequence (P04579 520-865): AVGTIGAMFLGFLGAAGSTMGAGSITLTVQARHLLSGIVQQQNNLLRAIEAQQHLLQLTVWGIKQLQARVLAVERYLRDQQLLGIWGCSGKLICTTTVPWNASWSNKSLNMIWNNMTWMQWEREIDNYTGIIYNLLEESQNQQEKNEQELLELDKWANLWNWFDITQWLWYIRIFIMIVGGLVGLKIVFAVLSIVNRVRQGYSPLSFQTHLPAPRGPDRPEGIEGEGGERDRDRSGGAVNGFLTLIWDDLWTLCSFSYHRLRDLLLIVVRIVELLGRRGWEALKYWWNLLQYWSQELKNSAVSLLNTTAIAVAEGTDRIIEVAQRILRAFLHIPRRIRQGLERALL
pIC50: −log10 of the molar value.
Measured attribute: pIC50

For orientation, consider the following solved cases.
Molecule: COc1ccc(-c2nc3c(C(=O)N4CCN(C(CO)c5cccc(OC)c5F)C[C@H]4C)cnn3c(C(F)(F)F)c2C)cc1 (stereo partly drawn)
pIC50: > 6.00

Molecule: COc1ccc(-c2nc3c(C(=O)N4CCN([C@@H](CO)c5ccccc5OC)C[C@H]4C)cnn3c(C(F)(F)F)c2C)cc1
pIC50: > 6.00

Molecule: COc1ccc(-c2nc3c(C(=O)N4CCN([C@H](CO)c5cccnc5OC)C[C@H]4C)cnn3c(C(F)(F)F)c2C)cc1
pIC50: 5.00 to 5.96

Molecule: COc1ccc(-c2nc3c(C(=O)N4CCN([C@@H](C)c5ccc(NC(C)=O)cc5)C[C@H]4C)cnn3c(C(F)(F)F)c2C)cc1
pIC50: < 5.00

Molecule: COc1ccc(-c2nc3c(C(=O)N4CCN(C(CO)c5c(F)cccc5F)C[C@H]4C)cnn3c(C(F)(F)F)c2C)cc1 (stereo partly drawn)
pIC50: > 6.00

Entry under review: COc1ccc(-c2nc3c(C(=O)N4CCN([C@H](CO)c5cccc(OC)c5)C[C@H]4C)cnn3c(C(F)(F)F)c2C)cc1 . Reported pIC50?
> 6.00
